Molecular target: Progesterone receptor (Oryctolagus cuniculus)
Sequence (whole entry): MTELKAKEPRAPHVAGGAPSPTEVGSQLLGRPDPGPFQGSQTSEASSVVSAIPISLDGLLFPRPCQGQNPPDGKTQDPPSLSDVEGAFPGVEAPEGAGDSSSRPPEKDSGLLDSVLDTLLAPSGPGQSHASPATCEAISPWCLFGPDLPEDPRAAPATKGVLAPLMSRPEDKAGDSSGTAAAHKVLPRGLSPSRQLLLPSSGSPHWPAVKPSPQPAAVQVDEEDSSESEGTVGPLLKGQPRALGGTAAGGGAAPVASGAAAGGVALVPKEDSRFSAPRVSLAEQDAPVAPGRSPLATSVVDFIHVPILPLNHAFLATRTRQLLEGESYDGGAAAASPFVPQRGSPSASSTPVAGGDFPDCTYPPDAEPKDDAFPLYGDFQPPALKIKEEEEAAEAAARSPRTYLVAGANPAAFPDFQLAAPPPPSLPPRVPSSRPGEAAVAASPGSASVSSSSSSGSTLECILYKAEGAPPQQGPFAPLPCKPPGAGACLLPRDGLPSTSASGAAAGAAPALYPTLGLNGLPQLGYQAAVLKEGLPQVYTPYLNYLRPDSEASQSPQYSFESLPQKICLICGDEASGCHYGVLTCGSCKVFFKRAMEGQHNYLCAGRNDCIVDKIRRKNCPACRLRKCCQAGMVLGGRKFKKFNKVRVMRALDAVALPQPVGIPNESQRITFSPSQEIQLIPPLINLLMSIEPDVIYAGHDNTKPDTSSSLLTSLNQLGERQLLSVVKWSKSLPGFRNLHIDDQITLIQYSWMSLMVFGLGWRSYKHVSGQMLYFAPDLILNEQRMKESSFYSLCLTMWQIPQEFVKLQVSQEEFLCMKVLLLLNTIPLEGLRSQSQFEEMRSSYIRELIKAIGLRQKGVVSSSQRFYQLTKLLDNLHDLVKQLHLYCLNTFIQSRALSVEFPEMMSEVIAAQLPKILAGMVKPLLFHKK
Assay: Binding affinity for rat progesterone receptor compared to progesterone
parameter: Competition factor

> print(dat)
                                   molecule                       experimental.target           parameter  experimental.result
1  C[C@H]1CC2(C)C(=CC1=O)C1CC1C1C2CCC2(C)C1C1CC1[C@@]21CCC(=O)O1 (stereo partly drawn)  Progesterone receptor (Oryctolagus cuniculus)  Competition factor                   30
2  CC12CCC(=O)C=C1C1CC1C1C2CC(O)C2(C)C1C1CC1[C@@]21CCC(=O)O1 (stereo partly drawn)  Progesterone receptor (Oryctolagus cuniculus)  Competition factor                   25
3  CC12C=CC(=O)C=C1C1CC1C1C2CCC2(C)C1C1CC1[C@@]21CCC(=O)O1 (stereo partly drawn)  Progesterone receptor (Oryctolagus cuniculus)  Competition factor                  6.5
4  CC(=O)S[C@@H]1CC2=CC(=O)CC[C@]2(C)[C@H]2CC[C@@]3(C)[C@@H](CC[C@@]34CCC(=O)O4)[C@H]12  Progesterone receptor (Oryctolagus cuniculus)  Competition factor                   21

I: C=C1CC2(C)C(=CC1=O)C1CC1C1C2CCC2(C)C1C1CC1[C@@]21CCC(=O)O1 (stereo partly drawn)
II: C[C@]12CCC(=O)C=C1[C@@H]1C[C@@H]1[C@H]1[C@@H]3[C@@H]4C[C@@H]4[C@@]4(CCC(=O)O4)[C@@]3(C)CC[C@@H]12
III: CC12CCC(=O)C=C1C1CC1C1C2[C@H](O)CC2(C)C1C1CC1[C@@]21CCC(=O)O1 (stereo partly drawn)
IV: C[C@@H]1CC2(C)C(=CC1=O)C1CC1C1C2CCC2(C)C1C1CC1[C@@]21CCC(=O)O1 (stereo partly drawn)
**Query** Form: Sort by [Competition factor] Order [ ascending ] Enter labels, ranked according to the request.
**Result** II, I, IV, III
(II: 2.7, I: 18, IV: 105, III: 195)
